Quick reference for log(1/C) among some compounds
species on record: Mus musculus; experiment: Analgesic activity in mouse by hot-plate method; format: functional
Field format: numeric only.

Please review the entries below; each comes with its answer.
CCCCC[C@@]12CCN(C)C(Cc3ccc(O)cc31)C2 (mixture of isomers); 1.96
CC(=O)Oc1ccc2c(c1)[C@@]1(C)CCN(C)C(C2)C1 (mixture of isomers); 1.98
C[C@@H]1C2Cc3ccc(O)cc3[C@@]1(c1ccccc1)CCN2C (stereo in doubt; 88); 1.99
C[C@H]1C2Cc3ccc(O)cc3[C@@]1(C)CCN2CCc1ccccc1 (stereo in doubt; 87); 2.05
CC[C@@]12CCN(C)C(Cc3ccc(O)cc31)[C@@H]2C (mixture of isomers); 2.06
CN1CC[C@]2(C)c3cc(O)ccc3CC1[C@@]2(C)O (mixture of isomers); 2.15
CCC[C@@]12CCN(C)C(Cc3ccc(O)cc31)[C@@H]2C (stereo in doubt; 25); 2.57
CC(=O)Oc1ccc2c(c1)[C@H]1CCN(C)C(C2)C1 (mixture of isomers); 1.57
CC[C@H]1C2Cc3ccc(O)cc3[C@@]1(CC)CCN2C (stereo in doubt; 30); 2.35
C[C@H]1C2Cc3ccccc3[C@@]1(O)CCN2C (mixture of isomers); 0.75

Look up log(1/C): C[C@@]12CCN(CCc3ccccc3)C(Cc3ccccc31)C2 (mixture of isomers)
1.26

Try the compound CC[C@@]12CCN(C)C(Cc3ccc(O)cc31)C2 (stereo in doubt; 20)
2.62

Try the compound C[C@H]1C2Cc3ccc(O)cc3[C@@]1(C)CCN2CCc1cccs1 (mixture of isomers)
4.04

Try the compound C[C@]1(O)C2Cc3ccc(O)cc3[C@@]1(C)CCN2CCc1ccccc1 (mixture of isomers)
2.05

Try the compound C[C@@H]1C2Cc3ccc(O)cc3[C@@]1(C)CCN2C (stereo in doubt; 92)
1.6

Try the compound C[C@@H]1C2CCN(CCc3ccccc3)C1Cc1ccc(O)cc12 (mixture of isomers)
3.21

Try the compound CCCCCC[C@@]12CCN(C)C(Cc3ccc(O)cc31)[C@H]2CO (mixture of isomers)
1.53

Try the compound CC[C@@H]1C2Cc3ccccc3[C@@]1(CC)CCN2C (mixture of isomers)
1.8
